Data origin, for the record: PubChem BioAssay AID504383

- Tested On: Troponin I, cardiac muscle (Homo sapiens) + Troponin T, cardiac muscle (Homo sapiens) + Troponin C, slow skeletal and cardiac muscles (Homo sapiens) (UniProt P19429+P45379+P63316)
- Protocol Details: cardiac RTF calcium sensitivity activators, confirmation, biochemical, IANBD-TnC fluorescence, triplicate (AID 504383);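 further: 0% = DMSO at 0.472 mM calcium and 100% = DMSO at 2.9 mM calcium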
- Particulars: IANBD-labeled cardiac RTF, Ca2+ sensitivity fluorescence; at 7.2 µM; stronger effect = higher value; scaled from EC20 to saturating calcium; tested at EC20 calcium, 0.472 mM
Out of some 2,500 compounds screened, about 1,200 (48%) were called active. The set was probably picked from earlier hits. Some of the results follow.
Observable: activation (%)
Return type: number; implicit unit %.

In the examples that follow, each entry is paired with its recorded activation.
Compound | Quantitative Readout
O=[N+]([O-])c1ccc(N/N=C/c2ccc(OCc3cccc4ccccc34)cc2)nc1 | 8.03
CCC1Oc2ccc(C)cc2N(CC(=O)NCc2cccs2)C1=O (stereo not given) | -5.95
CN1CCN(C2=CC3=CC(=C(C#N)C#N)CCC3CC2)CC1 (stereo not given) | 6.77
COc1ccc(CCNC(=O)c2ccccc2OCc2c(C)noc2C)cc1 | 7.09
CN(/N=C/c1ccc(O)cc1O)c1ncc(C(F)(F)F)cc1Cl | 6.15
CCOc1ccccc1C1C(C#N)=C(N)SC(N)=C1C#N | 5.25
C/C(=N\NC(=O)c1cc2c(s1)CCC(C)C2)c1ccc[nH]1 (stereo not given) | 5.66
CC1(C)CC(=O)C2=C(C1)OC(N)=C(C#N)[C@@H]2c1ccccc1[N+](=O)[O-] | 22
CCc1ccc(NC(=O)C2CCN(S(=O)(=O)c3ccc4[nH]c(=O)ccc4c3)CC2)cc1 | 12.1
O=C(c1ccc([N+](=O)[O-])cc1[N+](=O)[O-])n1cnc2ccccc21 | -1.33

Request: Look up activation for this compound: O=C(O)CCC(=O)NNC(=O)c1ccc(-c2ccccc2)cc1
Result: 104

Request: Record: O=C(O)CSc1nc2ccccc2nc1Cc1ccccc1F
Result: 413

Request: Lookup N#C/C(=C/c1ccc(N2CCCCC2)o1)C(=O)NCCc1c[nH]c2ccccc12
Result: 40.9

Request: Okay, and CCCC1C(c2ccccc2)C(C#N)(C#N)C2(C#N)CC1(N)NC2=O (stereo not given) ?
Result: 10.5

Request: Let us now turn to O=C(/C=C/c1cccc(F)c1)Nc1cc(S(=O)(=O)N2CCOCC2)ccc1N1CCCC1
Result: 9.19

Request: Entry to check: N#C/C(=C\c1ccc(N2CCOCC2)o1)C(=O)NC1CCCCC1
Result: 28.9

Request: Please answer likewise for O=C(COC(=O)/C=C/c1ccccc1[N+](=O)[O-])NNC(=O)c1ccc(F)cc1
Result: 9.23

====

- Tested On: Troponin I, cardiac muscle (Homo sapiens) + Troponin T, cardiac muscle (Homo sapiens) + Troponin C, slow skeletal and cardiac muscles (Homo sapiens) (UniProt P19429+P45379+P63316)
- Protocol Details: cardiac RTF calcium sensitivity activators, confirmation, biochemical, IANBD-TnC fluorescence, triplicate (AID 504383);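 further: 0% = DMSO at 0.472 mM calcium and 100% = DMSO at 2.9 mM calcium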
- Particulars: IANBD-labeled cardiac RTF, Ca2+ sensitivity fluorescence; at 7.2 µM; stronger effect = higher value; scaled from EC20 to saturating calcium; tested at EC20 calcium, 0.472 mM
About 1,200 (48%) of roughly 2,500 compounds were called active. So high a share suggests a set chosen from earlier hits. Some of the results follow.
Observable: activation (%)
API: value field is a number in %; no unit string.

Molecule | activation, %
COc1cc(NC(=O)CSc2ccccc2)c(C(=O)O)cc1OC | 23.2

Request: So what's the measured activation for this one? CC(C)C(=O)c1cc2c(cc1NC(=O)c1ccccc1)OCCO2
Result: 3.91

Request: What do you have for COc1ccc(Br)cc1S(=O)(=O)Nc1ncccc1C ?
Result: 68.3

Request: For N#C/C(=C\c1ccc(N2CCOCC2)o1)c1nc2ccccc2[nH]1 then?
Result: 29.6

Request: Now consider COC(=O)c1sccc1NC(=O)CSCC(=O)O .
Result: 0.67
